Assay Explanation: Inhalation of insulin/enhancer powder in rats, blood glucose monitored as measure of insulin uptake
Format: in vivo, rat
Measurement Context: rat model
Assay Metric: Enhancement of polypeptide (insulin) absorption in the lung, result in words

Compound	Recorded Value
CCCCCCCCCCCC(=O)[O-].[Na+] [Sodium laurate]	perform well
CCCCCCCCCCCCCC(=O)[O-].[Na+] [Sodium myristate]	perform well
CCCCCCCCCC(=O)[O-].[Na+] [Sodium caprate]	perform well

----------
Assay Explanation: Inhalation of insulin/enhancer powder in rats, blood glucose monitored as measure of insulin uptake
Format: in vivo, rat
Measurement Context: rats, inhaled powder, Enhancer:Insulin:lactose 4:4:92
Assay Metric: Effect (enhancement of insulin uptake, blood glucose level)

Molecule	Recorded Value
CCCCCCCCOC1O[C@H](CO)[C@@H](O)[C@H](O)[C@H]1O (some centres unmarked) [Octylglucopyranoside]	(+)
C[C@H](CCC(=O)O)[C@H]1CC[C@H]2[C@@H]3[C@@H](O)C[C@@H]4C[C@H](O)CC[C@]4(C)[C@H]3CC[C@]12C [Sodium ursodeoxycholate]	+
C[C@H](CCC(=O)NCCS(=O)(=O)O)[C@H]1CC[C@H]2[C@@H]3[C@H](O)C[C@@H]4C[C@H](O)CC[C@]4(C)[C@H]3C[C@H](O)[C@]12C [Sodium taurocholate]	+
C[C@H](CCC(=O)NCC(=O)O)[C@H]1CC[C@H]2[C@@H]3[C@H](O)C[C@@H]4C[C@H](O)CC[C@]4(C)[C@H]3C[C@H](O)[C@]12C [Sodium glycocholate]	+
CCCCCCCC/C=C\CCCCCCCC(=O)[O-].[K+] [Potassium oleate]	+
